Assign EC50 to each entry below.
Molecular target: hMPV B2 F protein (his-tagged, not trypsin treated) (human metapneumovirus)
Experiment: ELISA on coated recombinant protein, OD 405 nm
Report only the number, with the unit µg/mL understood.

Could you please provide reported EC50 for MPV464 (antibody, V domains shown) VH: QVQLQESGPGLVKPSQTLSLTCTVSGGSVRGGGDYWSWIRRPPGKGLEWIGHIYNSGTTFYNPSLKSRVTISIDTSKNQFSLKLRSVTAADTAVYYCGRVGSRATGLPDWIDPWGQGTLVTVSS VL: SYELTQPPSVSVSPGQTATITCSGTNLGAKYSCWYQQKPGQSPVLVIFQDNKRASGIPARFSASTSGDTATLTISGTQVMDEADYFCQAWDSRTAVFGGGTTLTVL ? Thanks!
0.98

Fill in reported EC50 for this entry: MPV86 (antibody, V domains shown) VH: QVQLVQSGAEVKKPGSSVKVSCKASGDTFNDVALSWVRQAPGQGLEWLGGIIPFFGTANYAQRFQDRVTITADASTSTAYLELGGLRSEDTAVYYCARGWSCRNITCFMMGYYFYIMDVWGQGTLVTVSS VL: LSLSPGERATLSCRASQSVGNFLAWYQQKPGQTPRLLIQDASNRATGIPARFSGTGSGTDFTLTISSLEPEDFAVYYCQQRSNWPPTFGPGTKVDIK
5.7

Find the measured EC50 of MPV491 (antibody, V domains shown) VH: QVQLQESGPGLVKSSQTLSLTCTVSGGSISSVTSHWTWIRQHPGKGLEWIGYIFSSGTTYYSPSLRSRLTMSVDTSKNQFSLQLSSVTAADTAMYYCARGIYCGDSCYKGTDYWGRGTLVTVSS VL: IRLMTQTPVTLPVTPGEPASISCRSSQSLLHSNGYNYLDWYLQKPGQSPQLLIYRGSTRASGVPDRFSGSGSGTEFTLKISRVEAEDVGVYYCMQGLQTPYTFGQGTKLESR and report it.
2.1
